Measurement Protocol: Loss of tail withdrawal reflex (LOTWR) in rats, single intravenous injection, dose escalation: potent analgesic effect and severe adverse reactions
Format: in vivo, SD rats
Particulars: rat, in vivo, single intravenous injection, minimum dose resulting in serious adverse reactions / minimum effective dose, class symbol, read-out: The safety therapeutic index
Measured Attribute: selectivity ratio

Some compounds with recorded selectivity ratio:
1) Cc1ccc(CNC(=N)NCc2cc(C)nn2C)c(N(C)C)c1    > 4
2) Cc1ccc(NC(=O)NCc2ncc[nH]2)c(N(C)C)c1    2 to 4
3) Cc1ccc(CNC(=N)NCc2cccs2)c(N(C)C)c1    ≤ 2

// below: selectivity ratio requested for another compound
Q: I am curious: what selectivity ratio value has been reported for Cc1ccc(CNC(=S)NCc2cccs2)c(N(C)C)c1 ?
Ans: > 4

====

Measurement Protocol: Loss of tail withdrawal reflex (LOTWR) in rats, single intravenous injection, dose escalation: potent analgesic effect and severe adverse reactions
Type: in vivo, SD rats
Particulars: rat, in vivo, single intravenous injection, minimum dose resulting in serious adverse reactions / minimum effective dose, class symbol, read-out: The safety therapeutic index
Measured Attribute: selectivity ratio

Some compounds with recorded selectivity ratio:
1. Cc1ccc(CNC(=O)NCCc2ccsc2)c(N(C)C)c1 [Example 12]    ≤ 2
2. Cc1ccc(CNC(=S)NCc2ccoc2)cc1N(C)C [Example 72]    2 to 4
3. Cc1ccc(CNC(=N)NCc2ccsc2)cc1N(C)C [Example 20]    ≤ 2
4. Cc1ccc(CNC(=S)NCc2ncc[nH]2)c(N(C)C)c1 [Example 74]    ≤ 2
5. Cc1ccc(CNC(=O)NCc2ncc[nH]2)c(N(C)C)c1 [Example 43]    > 4

Q: I am curious: what selectivity ratio value has been reported for Cc1ccc(COC(=O)NCc2ccsc2)c(N(C)C)c1 [Example 6] ?
Ans: 2 to 4

Q: I am curious: what selectivity ratio value has been reported for Cc1ccc(CNC(=O)NCc2cc(C)nn2C)c(N(C)C)c1 [Example 117] ?
Ans: 2 to 4

====

Measurement Protocol: Loss of tail withdrawal reflex (LOTWR) in rats, single intravenous injection, dose escalation: potent analgesic effect and severe adverse reactions
Type: in vivo, SD rats
Particulars: rat, in vivo, single intravenous injection, minimum dose resulting in serious adverse reactions / minimum effective dose, class symbol, read-out: The safety therapeutic index
Measured Attribute: selectivity ratio

1) CCCc1ccc(CNC(=S)NCc2cccs2)c(N(C)C)c1    > 4
2) CN(C)c1cc(CNC(=O)NCc2ccco2)ccc1C(F)(F)F    > 4
3) Cc1ccc(CNC(=S)NCc2ccns2)cc1N(C)C    2 to 4
4) [2H]C([2H])([2H])N(c1cc(C)ccc1CNC(=S)NCc1cccs1)C([2H])([2H])[2H]    2 to 4
5) CN(C)c1ccc(CNC(=O)NCc2cccs2)cc1    ≤ 2

Q: I am curious: what selectivity ratio value has been reported for Cc1ccc(NC(=O)NCc2ccns2)c(N(C)C)c1 ?
Ans: ≤ 2

Q: I am curious: what selectivity ratio value has been reported for Cc1ccc(CSC(=O)SCc2cccs2)c(N(C)C)c1 ?
Ans: 2 to 4

Q: I am curious: what selectivity ratio value has been reported for Cc1ccc(CNC(=S)NCc2ccco2)cc1N(C)C ?
Ans: ≤ 2

Q: I am curious: what selectivity ratio value has been reported for Cc1ccc(CNC(=O)NCc2ccco2)cc1N(C)C ?
Ans: > 4

Q: I am curious: what selectivity ratio value has been reported for Cc1ccc(CNC(=O)NCc2ccno2)c(N(C)C)c1 ?
Ans: ≤ 2

====

Measurement Protocol: Loss of tail withdrawal reflex (LOTWR) in rats, single intravenous injection, dose escalation: potent analgesic effect and severe adverse reactions
Assay type: in vivo, SD rats
Particulars: rat, in vivo, single intravenous injection, minimum dose resulting in serious adverse reactions / minimum effective dose, class symbol, read-out: The safety therapeutic index
Measured Attribute: selectivity ratio

Q: I am curious: what selectivity ratio value has been reported for Cc1cc(CNC(=O)NCc2ccc(C)c(N(C)C)c2)n(C)n1 [Example 113] ?
Ans: > 4

Q: I am curious: what selectivity ratio value has been reported for CN(C)c1ccccc1CNC(=S)NCc1cccs1 [Example 28] ?
Ans: ≤ 2

Q: I am curious: what selectivity ratio value has been reported for Cc1ccc(NC(=S)Nc2ccsc2)cc1N(C)C [Example 79] ?
Ans: ≤ 2

====

Measurement Protocol: Loss of tail withdrawal reflex (LOTWR) in rats, single intravenous injection, dose escalation: potent analgesic effect and severe adverse reactions
Assay type: in vivo, SD rats
Particulars: rat, in vivo, single intravenous injection, minimum dose resulting in serious adverse reactions / minimum effective dose, class symbol, read-out: The safety therapeutic index
Measured Attribute: selectivity ratio

Some compounds with recorded selectivity ratio:
1. CN(C)c1cc(C2CC2)ccc1CNC(=S)NCc1cccs1 [Example 119]    ≤ 2
2. Cc1ccc(CNC(=S)NCc2ccnn2C)cc1N(C)C [Example 116]    2 to 4
3. Cc1ccc(NC(=N)Nc2ccsc2)cc1N(C)C [Example 21]    > 4
4. Cc1ccc(CNC(=N)NCc2ccnn2C)cc1N(C)C [Example 109]    ≤ 2
5. Cc1ccc(CSC(=O)OCc2ccsc2)c(N(C)C)c1 [Example 99]    ≤ 2
6. CN(C)c1cccc(CNC(=O)NCc2cccs2)c1 [Example 34]    ≤ 2
7. CCCCc1cscc1CNC(=O)NCc1ccc(C)cc1N(C)C [Example 52]    2 to 4
8. Cc1ccc(CNC(=S)NCc2cccs2)c(N2CCOCC2)c1 [Example 89]    2 to 4

Q: I am curious: what selectivity ratio value has been reported for Cc1ccc(CSC(=S)SCc2cccs2)c(N(C)C)c1 [Example 98] ?
Ans: ≤ 2

Q: I am curious: what selectivity ratio value has been reported for COc1c(N(C)C)cc(CNC(=O)NCc2ccsc2)cc1N(C)C [Example 47] ?
Ans: ≤ 2

Q: I am curious: what selectivity ratio value has been reported for Cc1cc(CNC(=S)NCc2ccc(C)c(N(C)C)c2)n(C)n1 [Example 115] ?
Ans: > 4

Q: I am curious: what selectivity ratio value has been reported for CN(C)c1cccc(CNC(=O)NCc2ccsc2)c1 [Example 30] ?
Ans: ≤ 2

Q: I am curious: what selectivity ratio value has been reported for Cc1cc(C)cc(CNC(=O)NCc2ccc(C)cc2N(C)C)c1 [Example 63] ?
Ans: ≤ 2

Q: I am curious: what selectivity ratio value has been reported for CCCCc1ccc(CNC(=O)NCc2ccco2)cc1N(C)C [Example 120] ?
Ans: > 4

Q: I am curious: what selectivity ratio value has been reported for Cc1ccc(CNC(=O)NCc2cccs2)cc1N(C)C [Example 31] ?
Ans: > 4

Q: I am curious: what selectivity ratio value has been reported for Cc1ccc(CNC(=O)Nc2ncc[nH]2)c(N(C)C)c1 [Example 103] ?
Ans: > 4

Q: I am curious: what selectivity ratio value has been reported for CN(C)c1ccccc1CNC(=O)NCc1cccs1 [Example 27] ?
Ans: > 4

Q: I am curious: what selectivity ratio value has been reported for Cc1ccc(CNC(=O)NCc2ccco2)c(N(C)C)c1 [Example 23] ?
Ans: ≤ 2

====

Measurement Protocol: Loss of tail withdrawal reflex (LOTWR) in rats, single intravenous injection, dose escalation: potent analgesic effect and severe adverse reactions
Type: in vivo, SD rats
Particulars: rat, in vivo, single intravenous injection, minimum dose resulting in serious adverse reactions / minimum effective dose, class symbol, read-out: The safety therapeutic index
Measured Attribute: selectivity ratio

1) Cc1ccc(CNC(=N)NCc2ccno2)c(N(C)C)c1 [Example 92]    2 to 4
2) Cc1ccc(NC(=O)Nc2ccsc2)c(N(C)C)c1 [Example 13]    > 4

// below: selectivity ratio requested for another molecule
Q: I am curious: what selectivity ratio value has been reported for Cc1ccc(CNC(=S)NCc2ccoc2)c(N(C)C)c1 [Example 70] ?
Ans: ≤ 2

====

Each entry below carries its reported selectivity ratio.
Measurement Protocol: Loss of tail withdrawal reflex (LOTWR) in rats, single intravenous injection, dose escalation: potent analgesic effect and severe adverse reactions
Assay type: in vivo, SD rats
Particulars: rat, in vivo, single intravenous injection, minimum dose resulting in serious adverse reactions / minimum effective dose, class symbol, read-out: The safety therapeutic index

Q: I am curious: what selectivity ratio value has been reported for CNc1cc(C)ccc1CNC(=O)NCc1ccsc1 ?
Ans: ≤ 2

====

Measurement Protocol: Loss of tail withdrawal reflex (LOTWR) in rats, single intravenous injection, dose escalation: potent analgesic effect and severe adverse reactions
Assay type: in vivo, SD rats
Particulars: rat, in vivo, single intravenous injection, minimum dose resulting in serious adverse reactions / minimum effective dose, class symbol, read-out: The safety therapeutic index
Each entry below carries its reported selectivity ratio.

Some compounds with recorded selectivity ratio:
1) CN(C)c1cccc(NC(=N)Nc2ccsc2)c1    ≤ 2
2) CN(C)c1ccccc1CNC(=O)NCc1ccns1    ≤ 2
3) Cc1ccc(CNC(=O)NCc2ccccc2)c(N(C)C)c1    2 to 4
4) Cc1ccc(CNC(=O)NCc2nnn[nH]2)c(N(C)C)c1    ≤ 2
5) Cc1ccc(CNC(=O)NCc2ccnn2C)cc1N(C)C    > 4
6) Cc1ccc(CNC(=N)NCc2ncc[nH]2)c(N(C)C)c1    2 to 4
7) Cc1ccc(COC(=S)SCc2ccsc2)c(N(C)C)c1    ≤ 2

// below: selectivity ratio requested for another compound
Q: I am curious: what selectivity ratio value has been reported for Cc1ccc(CNC(=O)NCc2ccsc2)c(N(C)C)c1 ?
Ans: 2 to 4
